# system_name: Schistosoma mansoni thioredoxin glutathione reductase (TGR)
# protocol_text: qHTS Assay for the Inhibitors of Schistosoma Mansoni Peroxiredoxins; also: nearly all actives have a fitted effect of over 60% in size
# recorded_conditions: purified TGR, DTNB reduction, TNB absorbance 405 nm; series mostly up to 114 µM
In all, about 360,000 compounds went through this assay and about 11,000 (3.1%) were called active. Roughly 4% stayed inconclusive and do not appear here. Calls follow the shape of the dose curve; as a rule, active = well fitted inhibition curve with a large enough effect; inconclusive = small, poorly fitted or top-dose-only effect; inactive = no such curve, though single readings can be large or run the other way. The entries come from a sample that favours actives as a whole.
I would appreciate it if you answered using one of these outcomes: true for active, false for inactive

Examples from the recorded data:
>>> qualitative_label("CCCCCCC(=O)N(O)C1CC(=O)N(c2ccccc2)C1=O (stereo not given)")
"true"
>>> qualitative_label("C=CCn1c(SCC(=O)NC(=O)Cc2ccccc2)nc2ccccc2c1=O")
"true"
>>> qualitative_label("CCCCN(CC(=O)Nc1cccc(S(=O)(=O)N2CCCC2)c1)Cc1nc2ccccc2c(=O)[nH]1")
"true"
>>> qualitative_label("COc1cccc(N2CCN(S(=O)(=O)c3ccc4c(c3)CCCN4C(C)=O)CC2)c1")
"false"
>>> qualitative_label("Cc1ccc(Cl)cc1NC(=O)NC1COc2ccccc2C1 (stereo not given)")
"false"

Returns: the outcome recorded for Cc1cccc(N2CCN(C(=O)c3cc4c(=O)oc5ccccc5c4s3)CC2C)c1 (stereo not given) in this assay.
false

Test call for this molecule, please: Cn1c(=O)n(Cc2c(F)cccc2Cl)c(=O)c2c1nc1n2CCN1c1ccc(F)cc1
false

Please state the recorded outcome for this molecule: CCN(CC)c1ccc(C(=O)NNC(=O)CCc2nc3ccccc3c(=O)[nH]2)cc1
false

I would be grateful if you could indicate the recorded call for C=CCn1c(SCc2ccc(C(=O)NCCO)cc2)nc2ccccc2c1=O .
false

Could you kindly confirm the outcome this assay logged for Cc1cccc(Nc2cc(C)nc(-n3nc(C)cc3C)n2)c1 ?
false

###

# system_name: Schistosoma mansoni thioredoxin glutathione reductase (TGR) (UniProt Q962Y6)
# protocol_text: qHTS Assay for the Inhibitors of Schistosoma Mansoni Peroxiredoxins; also: nearly all actives have a fitted effect of over 60% in size
# recorded_conditions: purified TGR, DTNB reduction, TNB absorbance 405 nm; series mostly up to 114 µM
Screen size: about 360,000 compounds; about 11,000 (3.1%) were called active. Another 4% or so got no clear call; they are omitted. Calls come from the whole dose curve; as a rule, active = well fitted inhibition curve with a large enough effect; inconclusive = small, poorly fitted or top-dose-only effect; inactive = no such curve, though single readings can be large or run the other way. The list comes from a sample in which actives are over-represented; it also holds close analogues and randomly drawn compounds.
Your response should consist of one outcome taken from yes (1) = active, no (0) = inactive

>>> qualitative_label("O=C(c1cc(-c2ccc(Cl)s2)nc2ccccc12)N1CCOCC1")
"no (0)"
>>> qualitative_label("COc1ccc(C(=O)OCC(=O)N2CC(=O)Nc3ccccc32)cc1Br")
"no (0)"

Hi team, can someone confirm the assay call for CCC(c1nnnn1Cc1ccco1)N(Cc1cc2cc(OC)ccc2[nH]c1=O)C1CCCCC1 (centres undefined) ?
yes (1)

What call does the record list for CN(CCOc1ccccc1)C(=O)c1cc(COc2c(F)cccc2F)on1 ?
no (0)

Recorded call for CCC(=O)Nc1c(C(=O)N2CCN(c3ccc(F)cc3)CC2)oc2ccccc12 ?
no (0)

###

# system_name: Schistosoma mansoni thioredoxin glutathione reductase (TGR) (UniProt Q962Y6)
# protocol_text: qHTS Assay for the Inhibitors of Schistosoma Mansoni Peroxiredoxins; also: nearly all actives have a fitted effect of over 60% in size
# recorded_conditions: purified TGR, DTNB reduction, TNB absorbance 405 nm; series mostly up to 114 µM
# Description: Schistosomiasis is a major neglected tropical disease that currently affects over 200 million. It is caused by different species of flatworms, such as Schistosoma mansoni. […] In addition, the fluorescence assay was also subject to fluorescence interference from compound library members. […] The assay followed the reduction of 5, 5'-dithiobis (2-nitrobenzoic acid) (DTNB) (Ellman's reagent) by NADPH and measured the increase in absorbance at 412 nm of the reaction product, TNB. […]
In all, about 360,000 compounds went through this assay and about 11,000 (3.1%) were called active. About 4% were inconclusive and are not listed. Calls follow the shape of the dose curve; as a rule, active = well fitted inhibition curve with a large enough effect; inconclusive = small, poorly fitted or top-dose-only effect; inactive = no such curve, though single readings can be large or run the other way. Only a selection was taken, and actives are over-represented in it overall.
Give your call using only these classes: y (active), n (inactive)

Below, 3 molecules whose answers are already recorded.
>>> qualitative_label("Cc1cccc(C)c1-n1ncc(C(=O)NCCCN2CCCCC2)c1C1CCN(C(=O)OC(C)(C)C)CC1")
"n"
>>> qualitative_label("Cc1ccc(Nc2nnc(-c3ccc(C)c(S(=O)(=O)N4CCCCC4)c3)c3ccccc23)cc1")
"n"
>>> qualitative_label("Cc1cccc(C(C)C)c1NC(=O)C(NS(=O)(=O)c1cccc2nsnc12)c1ccccc1 (stereo not given)")
"n"

Hello, I am checking results. What call was entered for Cc1cc(C)cc(NC(=O)CCCc2nc(-c3ccccc3Cl)no2)c1 ?
n

What is the recorded call for this molecule in the test? C#CC(CCN1CCCCC1)(OC)c1ccccc1 (stereo not given)
n

Test call, this molecule: CCOc1ccc(C2C(C#N)=C(N)N(N(C)C)C3=C2C(=O)CCC3)cc1 (stereo not given)
n

Returns: the outcome recorded for COCCCNC(=O)C1CC(=O)N(CCc2ccc(F)cc2)C1 (stereo not given) in this assay.
n

Record request — test call for C/C(CCC(=O)OC[C@H]1O[C@H](C#Cc2ccccc2)C=C[C@@H]1Oc1ccc(C)cc1)=N\OC[C@@H](O)[C@H]1O[C@@H]2OC(C)(C)O[C@@H]2[C@H]1O
y

// outcome(item) with item = CCC1=Nc2cc(C(=O)NCCCN3CCOCC3)ccc2Sc2ccc(Br)cc21
n
